ASSAY_SUMMARY: Cmax in healthy human at […] administered via nasogastric tube
Type: ADME, organism-based
Set-up: route nasogastric
CONDITION_CONTEXT: in vivo, po
READOUT: Cmax
Entry format: amount then unit.

-- ask Return the recorded Cmax value; entry: CC[C@@H]([C@H](C)O)n1ncn(-c2ccc(N3CCN(c4ccc(OC[C@@H]5CO[C@@](Cn6cncn6)(c6ccc(F)cc6F)C5)cc4)CC3)cc2)c1=O [POSACONAZOLE]
-- reply 266 ng/mL

---

ASSAY_SUMMARY: AUC (0 to infinity) in healthy human at […], po by ITT analysis
Format: ADME, organism-based
Parameters: time infinity, route oral
CONDITION_CONTEXT: plasma
READOUT: AUC(0-inf) (ng·h/mL)
Write down the numeric answer in ng·h/mL and omit the unit.

-- ask Return the recorded AUC(0-inf) value; entry: CC[C@@H]([C@H](C)O)n1ncn(-c2ccc(N3CCN(c4ccc(OC[C@@H]5CO[C@@](Cn6cncn6)(c6ccc(F)cc6F)C5)cc4)CC3)cc2)c1=O [POSACONAZOLE]
-- reply 9390

---

ASSAY_SUMMARY: Tmax in healthy human at […] administered via nasogastric tube
Format: ADME, organism-based
CONDITION_CONTEXT: in vivo
READOUT: Tmax (h)
Write down the numeric answer in h and omit the unit.

-- ask Return the recorded Tmax value; entry: `CC[C@@H]([C@H](C)O)n1ncn(-c2ccc(N3CCN(c4ccc(OC[C@@H]5CO[C@@](Cn6cncn6)(c6ccc(F)cc6F)C5)cc4)CC3)cc2)c1=O`
-- reply 4

---

ASSAY_SUMMARY: Elimination rate in healthy human at […] administered via nasogastric tube
Type: ADME, organism-based
CONDITION_CONTEXT: in vivo
READOUT: k el (s⁻¹)
Write down the numeric answer in s⁻¹ and omit the unit.

-- ask Return the recorded k el value; entry: CC[C@@H]([C@H](C)O)n1ncn(-c2ccc(N3CCN(c4ccc(OC[C@@H]5CO[C@@](Cn6cncn6)(c6ccc(F)cc6F)C5)cc4)CC3)cc2)c1=O [POSACONAZOLE]
-- reply 8.61e-06

---

ASSAY_SUMMARY: AUClast in healthy human at […] administered via nasogastric tube by ITT analysis
Type: ADME, organism-based
Set-up: time 0 - last, route nasogastric
CONDITION_CONTEXT: plasma, po
READOUT: AUC(0-t)
Entry format: amount then unit.

-- ask Return the recorded AUC(0-t) value; entry: CC[C@@H]([C@H](C)O)n1ncn(-c2ccc(N3CCN(c4ccc(OC[C@@H]5CO[C@@](Cn6cncn6)(c6ccc(F)cc6F)C5)cc4)CC3)cc2)c1=O [POSACONAZOLE]
-- reply 6950 ng·h/mL

---

ASSAY_SUMMARY: Cmax in healthy human at […] administered via nasogastric tube by ITT analysis
Type: ADME, organism-based
Parameters: route nasogastric
CONDITION_CONTEXT: in vivo, po
READOUT: Cmax (ng/mL)
Write down the numeric answer in ng/mL and omit the unit.

-- ask Return the recorded Cmax value; entry: `CC[C@@H]([C@H](C)O)n1ncn(-c2ccc(N3CCN(c4ccc(OC[C@@H]5CO[C@@](Cn6cncn6)(c6ccc(F)cc6F)C5)cc4)CC3)cc2)c1=O`
-- reply 233

---

ASSAY_SUMMARY: Cmax in healthy human at […], po by ITT analysis
Assay type: ADME, organism-based
Parameters: route oral
CONDITION_CONTEXT: in vivo
READOUT: Cmax

-- ask Return the recorded Cmax value; entry: CC[C@@H]([C@H](C)O)n1ncn(-c2ccc(N3CCN(c4ccc(OC[C@@H]5CO[C@@](Cn6cncn6)(c6ccc(F)cc6F)C5)cc4)CC3)cc2)c1=O [POSACONAZOLE]
-- reply 289 ng/mL

---

ASSAY_SUMMARY: Tmax in healthy human at 400 mg, po
CONDITION_CONTEXT: in vivo
READOUT: Tmax
Entry format: amount then unit.

-- ask Return the recorded Tmax value; entry: `CC[C@@H]([C@H](C)O)n1ncn(-c2ccc(N3CCN(c4ccc(OC[C@@H]5CO[C@@](Cn6cncn6)(c6ccc(F)cc6F)C5)cc4)CC3)cc2)c1=O`
-- reply 4 h

---

ASSAY_SUMMARY: AUClast in healthy human at […] administered via nasogastric tube
Format: ADME, organism-based
Parameters: route nasogastric, time 0 - last
CONDITION_CONTEXT: plasma, po
READOUT: AUC(0-t) (ng·h/mL)
Write down the numeric answer in ng·h/mL and omit the unit.

-- ask Return the recorded AUC(0-t) value; entry: `CC[C@@H]([C@H](C)O)n1ncn(-c2ccc(N3CCN(c4ccc(OC[C@@H]5CO[C@@](Cn6cncn6)(c6ccc(F)cc6F)C5)cc4)CC3)cc2)c1=O`
-- reply 8030
